# Assay Explanation: Pharmacokinetics of single administration in mice
# Assay type: in vivo, Balb/c mice
# Experimental Context: female, Balb/c, mouse, plasma, po 10 mg/kg, read-out: Cmax
We begin with a simple list: items and their reported Cmax.
Metric: Cmax (ng/mL)

Molecule	Value Observed
O=C1CCN(c2cc(C(=O)N3CCC(CC4CCN(c5ccc(-c6cnc7[nH]cc(-c8cnn(CC(F)F)c8)c7n6)cn5)CC4)CC3)ccc2Cl)C(=O)N1 [Compound C195]	14300
O=C1CCN(c2cc(C(=O)N3CCC(CC4CCN(c5ccc(-c6cnc7[nH]cc(-c8cnn(C9CC9)c8)c7n6)cn5)CC4)CC3)ccc2Cl)C(=O)N1 [Compound C170]	1390
C/C(=C(Cl)\C=C/CC(=O)N1CCC(CC2CCN(c3ccc(-c4cnc5[nH]cc(-c6cnn(C)c6)c5n4)cn3)CC2)CC1)N1CCC(=O)NC1=O [Compound C110]	840
COCCn1cc(-c2c[nH]c3ncc(-c4ccc(N5CCC(CC6CCN(C(=O)c7ccc(Cl)c(N8CCC(=O)NC8=O)c7)CC6)CC5)nc4)nc23)cn1 [Compound C201]	4500
CCn1cc(-c2c[nH]c3ncc(-c4ccc(N5CCC(CC6CCN(C(=O)c7ccc(Cl)c(N8CCC(=O)NC8=O)c7)CC6)CC5)nc4)nc23)cn1 [Compound C162]	1370
[2H]C([2H])([2H])n1cc(-c2c[nH]c3ncc(-c4ccc(N5CCC(CC6CCN(C(=O)c7ccc(Cl)c(N8CCC(=O)NC8=O)c7)CC6)CC5)nc4)nc23)cn1 [Compound C160]	2460

* * *

# Measured Target: human HPK1 (Homo sapiens, UniProt Q92918)
# Sequence (Q92918 whole entry): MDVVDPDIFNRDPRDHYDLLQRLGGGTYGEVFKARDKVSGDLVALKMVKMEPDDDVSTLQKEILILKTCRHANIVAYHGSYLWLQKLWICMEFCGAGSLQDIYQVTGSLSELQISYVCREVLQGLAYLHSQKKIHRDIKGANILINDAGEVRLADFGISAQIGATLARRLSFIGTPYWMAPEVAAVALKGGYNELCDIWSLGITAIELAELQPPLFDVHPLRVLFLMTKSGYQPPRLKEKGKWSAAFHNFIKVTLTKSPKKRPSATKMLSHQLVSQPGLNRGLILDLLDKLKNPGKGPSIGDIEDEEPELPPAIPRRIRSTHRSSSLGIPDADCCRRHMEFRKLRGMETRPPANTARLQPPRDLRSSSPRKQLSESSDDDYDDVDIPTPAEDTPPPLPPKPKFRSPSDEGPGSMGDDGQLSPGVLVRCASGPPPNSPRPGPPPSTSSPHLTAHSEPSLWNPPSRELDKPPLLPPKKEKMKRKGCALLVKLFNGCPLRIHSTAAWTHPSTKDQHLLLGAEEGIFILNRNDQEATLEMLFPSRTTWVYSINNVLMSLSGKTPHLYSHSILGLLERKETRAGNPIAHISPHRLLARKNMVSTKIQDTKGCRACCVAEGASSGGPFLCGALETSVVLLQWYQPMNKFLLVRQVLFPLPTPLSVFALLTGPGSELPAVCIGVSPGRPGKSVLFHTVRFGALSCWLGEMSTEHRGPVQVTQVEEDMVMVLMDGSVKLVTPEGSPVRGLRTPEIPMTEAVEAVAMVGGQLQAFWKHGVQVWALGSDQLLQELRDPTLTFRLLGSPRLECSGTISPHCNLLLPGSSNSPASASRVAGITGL
# Assay Explanation: HPK1 protein degradation assay (WB) in RAMOS cell line
# Format: cell-based
# Design: The RAMOS cell line was selected as the degradation cell line; endogenous in cells; host or cells: RAMOS
# Experimental Context: RAMOS cells, 16 h, Western blot
We begin with a simple list: items and their reported Dmax.

Molecule	Measured Target	Uom	Dmax
O=C1CCN(c2cc(C(=O)N3CCC(CC4CCN(c5ccc(-c6cnc7[nH]cc(-c8cnn(CC9CC9)c8)c7n6)cn5)CC4)CC3)ccc2Cl)C(=O)N1	human HPK1 (Homo sapiens, UniProt Q92918)	%	51.6
CCN1CCC(n2cc(-c3c[nH]c4ncc(-c5ccc(N6CCC(CC7CCN(C(=O)c8ccc(Cl)c(N9CCC(=O)NC9=O)c8)CC7)CC6)nc5)nc34)cn2)CC1	human HPK1 (Homo sapiens, UniProt Q92918)	%	77
CCN1CCC(n2cc(-c3c[nH]c4ncc(-c5ccc(N6CCC(CC7CCCN(C(=O)c8ccc(Cl)c(N9CCC(=O)NC9=O)c8)CC7)CC6)nc5)nc34)cn2)CC1 (stereo not drawn)	human HPK1 (Homo sapiens, UniProt Q92918)	%	56.4

* * *

# Assay Explanation: Pharmacokinetics of single administration in mice
# Format: in vivo, Balb/c mice
# Experimental Context: female, Balb/c, mouse, plasma, po 10 mg/kg, read-out: AUC
AUC less than 7000 ng·h/mL is t; AUC greater than or equal to 7000 ng·h/mL is f.

> print(dat)
                        structure.as.smiles  class.name
1  O=C1CCN(c2cc(C(=O)N3CCC(CC4CCN(c5ccc(-c6cnc7[nH]cc(-c8cnn(C9CC9)c8)c7n6)cn5)CC4)CC3)ccc2Cl)C(=O)N1           t
2  O=C1CCN(c2cc(C(=O)N3CCC(CC4CCN(c5ccc(-c6cnc7[nH]cc(-c8cnn(CC(F)F)c8)c7n6)cn5)CC4)CC3)ccc2Cl)C(=O)N1           f
3  CCn1cc(-c2c[nH]c3ncc(-c4ccc(N5CCC(CC6CCN(C(=O)c7ccc(Cl)c(N8CCC(=O)NC8=O)c7)CC6)CC5)nc4)nc23)cn1           t
4  COCCn1cc(-c2c[nH]c3ncc(-c4ccc(N5CCC(CC6CCN(C(=O)c7ccc(Cl)c(N8CCC(=O)NC8=O)c7)CC6)CC5)nc4)nc23)cn1           f
5  [2H]C([2H])([2H])n1cc(-c2c[nH]c3ncc(-c4ccc(N5CCC(CC6CCN(C(=O)c7ccc(Cl)c(N8CCC(=O)NC8=O)c7)CC6)CC5)nc4)nc23)cn1           f
6  C/C(=C(Cl)\C=C/CC(=O)N1CCC(CC2CCN(c3ccc(-c4cnc5[nH]cc(-c6cnn(C)c6)c5n4)cn3)CC2)CC1)N1CCC(=O)NC1=O           t

* * *

We begin with a simple list: items and their reported Dmax.
# Measured Target: human HPK1 (Homo sapiens, UniProt Q92918)
# Assay Explanation: HPK1 protein degradation assay (WB) in RAMOS cell line
# Type: cell-based
# Set-up: The RAMOS cell line was selected as the degradation cell line; endogenous in cells; host or cells: RAMOS
# Experimental Context: RAMOS cells, 16 h, Western blot
Metric: Dmax (%)

Compound	Measured Target	Value Observed
CCN1CCC(n2cc(-c3c[nH]c4ncc(-c5ccc(N6CCC(CC7CCN(C(=O)c8ccc(Cl)c(N9CCC(=O)NC9=O)c8)CC7)CC6)c(F)c5)nc34)cn2)CC1 [Compound C135]	human HPK1 (Homo sapiens, UniProt Q92918)	63
Cn1cc(-c2c[nH]c3ncc(-c4ccc(N5CCC(CC6CCN(C(=O)c7ccc(Cl)c(C8CCC(=O)NC8=O)c7)CC6)CC5)nc4)nc23)cn1 (centres unmarked) [Compound C206]	human HPK1 (Homo sapiens, UniProt Q92918)	73
Cc1ccc(C(=O)N2CCC(CC3CCN(c4ncc(-c5cnc6[nH]cc(-c7cnn(C)c7)c6n5)cn4)CC3)CC2)cc1N1CCC(=O)NC1=O [Compound C204]	human HPK1 (Homo sapiens, UniProt Q92918)	85.4
CCN1CCC(n2cc(-c3c[nH]c4ncc(-c5ccc(N6CCC(C)(CN7CCN(C(=O)c8ccc(Cl)c(N9CCC(=O)NC9=O)c8)CC7)CC6)cc5)nc34)cn2)CC1 [Compound C139]	human HPK1 (Homo sapiens, UniProt Q92918)	80.9
C/C(=C(Cl)\C=C/CC(=O)N1CCC(CC2CCN(c3ccc(-c4cnc5[nH]cc(-c6cnn(C)c6)c5n4)cn3)CC2)CC1)N1CCC(=O)NC1=O [Compound C110]	human HPK1 (Homo sapiens, UniProt Q92918)	93
Cn1cc(-c2c[nH]c3ncc(-c4ccc(N5CCC(CC6CCN(C(=O)c7ccc(Cl)c(N8CCC(=O)NC8=O)c7)CC6)CC5)cc4)nc23)cn1 [Compound C140]	human HPK1 (Homo sapiens, UniProt Q92918)	50.7
CCN1CCC(n2cc(-c3c[nH]c4ncc(-c5cnc(OCCNC(=O)c6ccc(Cl)c(N7CCC(=O)NC7=O)c6)c(C)c5)nc34)cn2)CC1 [Compound C022]	human HPK1 (Homo sapiens, UniProt Q92918)	86
O=C1CCN(c2cc(C(=O)N3CCC(CC4CCN(c5ccc(-c6cnc7[nH]cc(-c8cnn([C@@H]9CCOC9)c8)c7n6)cn5)CC4)CC3)ccc2Cl)C(=O)N1 [Compound C199]	human HPK1 (Homo sapiens, UniProt Q92918)	83.8
CCN1CCC(n2cc(-c3c[nH]c4ncc(-c5ccc(N6CCC(OC7CCN(C(=O)c8ccc(Cl)c(N9CCC(=O)NC9=O)c8)CC7)CC6)c(F)c5)nc34)cn2)CC1 [Compound C134]	human HPK1 (Homo sapiens, UniProt Q92918)	78
CCN1CCC(n2cc(-c3c[nH]c4ncc(-c5ccc(N6CCC(CC7CCN(C(=O)c8ccc(Cl)c(N9CCC(=O)NC9=O)c8)CC7C)CC6)cc5)nc34)cn2)CC1 (centres unmarked) [Compound C115]	human HPK1 (Homo sapiens, UniProt Q92918)	66.4
O=C1CCN(c2cc(C(=O)N3CCC(CC4CCN(c5ccc(-c6cnc7[nH]cc(-c8cnn(C9CC9)c8)c7n6)cn5)CC4)CC3)ccc2Cl)C(=O)N1 [Compound C170]	human HPK1 (Homo sapiens, UniProt Q92918)	87.1

* * *

# Assay Explanation: Pharmacokinetics of single administration in mice
# Type: in vivo, Balb/c mice
# Experimental Context: female, Balb/c, mouse, plasma, iv 2 mg/kg
We begin with a simple list: items and their reported clearance.

Compound	clearance [mL/min/kg]
CCn1cc(-c2c[nH]c3ncc(-c4ccc(N5CCC(CC6CCN(C(=O)c7ccc(Cl)c(N8CCC(=O)NC8=O)c7)CC6)CC5)nc4)nc23)cn1 [Compound C162]	12.6
O=C1CCN(c2cc(C(=O)N3CCC(CC4CCN(c5ccc(-c6cnc7[nH]cc(-c8cnn(C9CC9)c8)c7n6)cn5)CC4)CC3)ccc2Cl)C(=O)N1 [Compound C170]	6.9
COCCn1cc(-c2c[nH]c3ncc(-c4ccc(N5CCC(CC6CCN(C(=O)c7ccc(Cl)c(N8CCC(=O)NC8=O)c7)CC6)CC5)nc4)nc23)cn1 [Compound C201]	6.58
O=C1CCN(c2cc(C(=O)N3CCC(CC4CCN(c5ccc(-c6cnc7[nH]cc(-c8cnn(CCF)c8)c7n6)cn5)CC4)CC3)ccc2Cl)C(=O)N1 [Compound C197]	4.5
C/C(=C(Cl)\C=C/CC(=O)N1CCC(CC2CCN(c3ccc(-c4cnc5[nH]cc(-c6cnn(C)c6)c5n4)cn3)CC2)CC1)N1CCC(=O)NC1=O [Compound C110]	8.27
[2H]C([2H])([2H])n1cc(-c2c[nH]c3ncc(-c4ccc(N5CCC(CC6CCN(C(=O)c7ccc(Cl)c(N8CCC(=O)NC8=O)c7)CC6)CC5)nc4)nc23)cn1 [Compound C160]	10.7
O=C1CCN(c2cc(C(=O)N3CCC(CC4CCN(c5ccc(-c6cnc7[nH]cc(-c8cnn(CC(F)F)c8)c7n6)cn5)CC4)CC3)ccc2Cl)C(=O)N1 [Compound C195]	0.785
